ASSAY: qHTS Assay for Inhibitors of Hepatitis C Virus (HCV)
STATED CONDITIONS: Huh7.5.1 HCVcc-Cre infection, luciferase reporter, 44 h; series mostly up to 41.8 µM
Among all 340,000 compounds or so, about 12,000 (3.5%) were called active. Roughly 18% stayed inconclusive and do not appear here. Only a selection was taken, and actives are over-represented in it overall.
METRIC NAME: outcome

CC(=O)Oc1ccc(C(=O)Nc2nccs2)cc1; inactive
Cc1cc(C)c(C)c(S(=O)(=O)Nc2cccnc2)c1C; inactive
Cc1cc(C)c(C=NNc2nc3c([nH]2)c(=O)n(C)c(=O)n3C)c(C)c1; inactive
Cc1cc2nc(C(F)(F)F)cc(-c3cccs3)n2n1; inactive
O=C(O)c1ccccc1-c1ccccc1C(=O)Nc1nccs1; inactive

## Task Fill in: outcome of COC(=O)c1sccc1NC(=O)c1cc(OC)c(OC)c(OC)c1 is ___
## Result inactive

* * *

ASSAY: qHTS Assay for Inhibitors of Hepatitis C Virus (HCV); also: potency is read from the fitted curve at half-maximal effect
STATED CONDITIONS: Huh7.5.1 HCVcc-Cre infection, luciferase reporter, 44 h; series mostly up to 41.8 µM
About 12,000 (3.5%) of roughly 340,000 compounds were called active. Not shown: some 18% with an inconclusive outcome. The sample as a whole holds a higher share of actives than the screen did.
METRIC NAME: Potency

Worked cases, Potency given:
Cc1ccccc1SCC(=O)OCC(=O)N1CC(=O)Nc2ccccc21; inactive
O=C(CCN1CCCCC1)NCC(=O)Nc1ccc(Br)cc1C(=O)c1ccccc1; 10 µM (active)
O=C1NCC(Nc2ccccc2)C(=O)N1 (configuration not stated); inactive
CCC(C)NC(=O)c1ccc(NC(=O)CC2SC(N3CCCCC3)=NC2=O)cc1 (configuration not stated); inactive
CC(Nc1nc(C(F)(F)F)nc2ccccc12)c1cccs1 (configuration not stated); 10 µM (active)
O=C(CSc1nc(=O)n2ccccc2n1)Nc1ccc2c(c1)OCCO2; inactive
CCOc1ncccc1C(=O)OCC(=O)c1c[nH]c2ccccc12; inactive
O=C(COc1ccccc1Cl)N1N=C(c2cccs2)CC1c1ccco1 (configuration not stated); inactive
O=C(CCN1C(=O)c2ccccc2C1=O)NCCCn1ccnc1; inactive
CC1=C(C(=O)OC(C)(C)C)C(c2ccc(Br)cc2)NC(=O)N1CCCC(=O)O (configuration not stated); inactive

## Task Fill in: Potency of O=C(Nc1ccon1)c1nc[nH]c1C(=O)NCc1ccccc1 is ___
## Result inactive

## Task Fill in: Potency of CC1CCCCC1NC(=O)Cn1c(=O)cnc2ccccc21 (configuration not stated) is ___
## Result inactive

## Task Fill in: Potency of O=C(NNC(=O)c1cc(S(=O)(=O)N2CCCCC2)ccc1Cl)c1ccccc1O is ___
## Result inactive

## Task Fill in: Potency of CC(C)CC1(C)NC(=O)N(CC(=O)Nc2ccc3c(c2)OCCO3)C1=O (configuration not stated) is ___
## Result inactive

## Task Fill in: Potency of Cc1ccc(C)c(N2CCN(C(=O)CCCCCn3c(=S)[nH]c4ccc(N5CCOCC5)cc4c3=O)CC2)c1 is ___
## Result 2.82 µM (active)

## Task Fill in: Potency of CC(C)c1ccc(S(=O)(=O)N2CCN(C(C)C(=O)NC3CCCC3)CC2)cc1 (configuration not stated) is ___
## Result inactive

## Task Fill in: Potency of CC1=C(C(=O)OCc2ccccc2)C(c2ccc(C(F)(F)F)cc2)NC(=O)N1CCCCCC(=O)O (configuration not stated) is ___
## Result inactive

## Task Fill in: Potency of CC(C)(C)OC(=O)NCCCCCNC(=O)c1[nH]cnc1C(=O)Nc1nccs1 is ___
## Result inactive

## Task Fill in: Potency of Clc1c(OCCCn2ccnc2)ccc2ccccc12 is ___
## Result 14.1 µM (active)

## Task Fill in: Potency of CCCCCCCCCCCCN1[C@@H](CC(C)=O)c2cc(F)cc(F)c2S1(=O)=O is ___
## Result inactive

## Task Fill in: Potency of CN(CC(=O)NCc1cccnc1)S(=O)(=O)c1cc(Cl)ccc1Cl is ___
## Result inactive

## Task Fill in: Potency of Cc1nc2ccccc2c(=O)n1-c1ccc(F)c(NC(=O)c2cccs2)c1 is ___
## Result inactive
